Consider the following compounds and their measured GI50 readings.
System: A498
Test: Sulforhodamine B growth inhibition, renal panel
Assay type: cell-based, human
Conditions: Homo sapiens, 48 h, SRB, read-out: GROWTH INHIBITION (GI 50)
Numbers only here, please. The scale is µM.

Study these solved cases before continuing.
Compound: CCC(=O)OC[C@]1(C)C(OC(=O)CC)CC[C@]2(C)C(C/C=C3/C(=O)OCC3OC(=O)/C=C/c3ccc(OC)cc3)[C@]3(CCC12)CO3 (some centres unmarked) [Example-9]
Assayed target: A498
GI50 (µM): 3
--
Compound: C[C@]12CC[C@@H](O)[C@@](C)(CO)C1CC[C@]1(CO1)C2C/C=C1/C(=O)OC[C@H]1OC(=O)/C=C/c1ccccc1 (some centres unmarked) [Example-7]
Assayed target: A498
GI50 (µM): 9
--
Compound: CCC(=O)OC[C@@]1(C)C2CC[C@]3(CO3)C(C/C=C3/C(=O)OC[C@H]3OC(=O)/C=C/c3ccc(OC)c(OC)c3)[C@@]2(C)CC[C@H]1OC(=O)CC (some centres unmarked) [Example-10]
Assayed target: A498
GI50 (µM): 3.5

Find the recorded GI50 belonging to C[C@]12CC[C@@H](OC(=O)CCl)[C@@](C)(COC(=O)CCl)C1CC[C@]1(CO1)C2C/C=C1/C(=O)OC[C@H]1OC(=O)CCl (some centres unmarked) [Example-4] and report it.
15

Next compound up: CCC(=O)OC[C@@]1(C)C2CC[C@]3(CO3)C(C/C=C3/C(=O)OC[C@H]3OC(=O)/C=C/c3ccccc3)[C@@]2(C)CC[C@H]1OC(=O)CC (some centres unmarked) [Example-8]
3
